Assay: Acute toxicity in rat
Conditions: in vivo, ip, single, dose-range 200-1000
Measured property: LD50

Lookup: Item under review: COCCCC(=O)NCc1ccc(C(F)(F)F)cc1 [Polymorphic Form A] . Reported LD50?
Found: ~800 mg/kg

----------
Assay: Solubility of the polymorphs at different pH (HPLC assay)
Assay type: physicochemical
Settings: phosphate buffer, pH 7.4, aqueous buffer, thermodynamic from solid, pH 7.4; read-out: Solubility, After 24 hours
Measured property: solubility at 24 h (µg/mL)
// return numeric value only (unit: µg/mL, not printed)

Lookup: Item under review: COCCCC(=O)NCc1ccc(C(F)(F)F)cc1 [Polymorphic Form A] . Reported solubility at 24 h?
Found: 140
